Values were extracted from PubChem BioAssay AID2286.

Overview of reported CC50 across a group of molecules:
test system: MAGI-CCR5 cells viability, CellTiter-Glo ATP luminescence; assay: MAGI-CCR5 and HeLa-R5-16 cytotoxicity, dose response, cytotoxicity control for HIV-1 fusion inhibitor project, cell-based, MAGI and MAGI-HeLa co-culture (AID 2286); details: measured here: MAGI + HeLa-R5-16 co-culture viability;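 note: cells exposed to compound for at least 64 h before ATP readout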
MEASURE_NAME: CC50

INSERT INTO measurements (smiles_code, measure_name, result) VALUES
  ('O=C(O)CN1C(=O)/C(=C\c2ccccc2OCc2ccc(Cl)cc2Cl)SC1=S', 'CC50', '> 50 µM'),
  ('C=CC#CC[N+]1(CC#Cc2ccccc2)CCOCC1', 'CC50', '> 50 µM'),
  ('Oc1c(Cl)cc(Cl)c(Cl)c1Cc1c(O)c(Cl)cc(Cl)c1Cl', 'CC50', '7.05 µM'),
  ('O=C(O)c1cc(-c2ccc(-c3c(-c4ccc5c(c4)OCO5)noc3-c3ccsc3)cc2)nc2ccccc12', 'CC50', '> 50 µM'),
  ('CSc1nnc(-c2ccccc2N=Cc2c(C)[nH]n(-c3ccc4ccccc4c3)c2=O)c(=O)[nH]1', 'CC50', '> 50 µM');
